- Test system: SARS-CoV-2 (USA_WA1/2020)
- test.method.notes: Antiviral Activity from SARS-CoV-2 Infection (cytopathic effect, Cell Titer-Glo)
- Type: cell-based
- measurement.parameters: Severe acute respiratory syndrome coronavirus 2, Vero C1008, 72 h, VeroE6 cells enriched for hACE2, MOI 0.002, 3-day incubation; tested alone or with P-gp inhibitor CP-100356 2 μM (table does not say which); read-out: Geometric Mean EC50
measured.property: log10 EC50 (log10 of the value in µM)
Scale type: logarithmic (base 10). Underlying EC50 unit: µM.

Please review the following examples before continuing.
CCn1nc(C)cc1OCC(=O)[C@H](C[C@@H]1CCNC1=O)NC(=O)[C@@H]1[C@@H]2[C@H](CN1C(=O)[C@@H](NC(=O)OC)C(C)(C)C)C2(C)C | 0.10
CCC(C(NC(=O)C(F)(F)F)C(=O)N1C[C@H]2[C@@H]([C@H]1C(=O)N[C@@H](C[C@@H]1CCNC1=O)C(=O)COc1ccc(F)cc1F)C2(C)C)C(F)(F)F (stereo in doubt) | -1.00
COCC(=O)[C@H](C[C@@H]1CCNC1=O)NC(=O)[C@@H]1CC(C(C)(C)C)CCN1C(=O)[C@@H](NS(=O)(=O)C(F)(F)F)C(C)C (single isomer, unassigned) | -0.57
CC(C)[C@H](NS(=O)(=O)C(F)(F)F)C(=O)N1C[C@H]2[C@@H]([C@H]1C(=O)N[C@@H](C[C@@H]1CCNC1=O)C(=O)COc1ccc(F)cc1F)C2(C)C | -0.40
CC(C)(C)[C@H](NS(=O)(=O)C(F)(F)F)C(=O)N1C[C@H]2[C@@H]([C@H]1C(=O)N[C@@H](C[C@@H]1CCNC1=O)C(=O)COc1cccc(C(F)(F)F)c1)C2(C)C | -0.78

Let me check: CCn1nc(C)cc1OCC(=O)[C@H](C[C@@H]1CCNC1=O)NC(=O)[C@@H]1[C@@H]2[C@H](CN1C(=O)[C@@H](NC(=O)C(F)(F)F)C(C)(C)C)C2(C)C , system SARS-CoV-2 (USA_WA1/2020), measured log10 EC50 is -0.37

Let me check: Cn1nc(C(F)(F)F)cc1OCC(=O)[C@H](C[C@@H]1CCNC1=O)NC(=O)[C@@H]1[C@@H]2[C@H](CN1C(=O)[C@@H](NC(=O)C(F)(F)F)C(C)(C)C)C2(C)C , system SARS-CoV-2 (USA_WA1/2020), measured log10 EC50 is -1.31

Let me check: CCC([C@H](NS(=O)(=O)C(F)(F)F)C(=O)N1C[C@H]2[C@@H]([C@H]1C(=O)N[C@@H](C[C@@H]1CCNC1=O)C(=O)COc1ccc(F)cc1F)C2(C)C)C(F)(F)F (stereo in doubt) , system SARS-CoV-2 (USA_WA1/2020), measured log10 EC50 is 0.74

Let me check: Cc1ccc(OCC(=O)[C@H](C[C@@H]2CCNC2=O)NC(=O)[C@@H]2[C@@H]3[C@H](CN2C(=O)[C@@H](NC(=O)C(F)(F)F)C(C)(C)C)C3(C)C)cn1 , system SARS-CoV-2 (USA_WA1/2020), measured log10 EC50 is -1.43

Let me check: Cc1cc(OCC(=O)[C@H](C[C@@H]2CCNC2=O)NC(=O)[C@@H]2[C@@H]3[C@H](CN2C(=O)[C@@H](NC(=O)C(F)(F)F)C(C)C)C3(C)C)no1 , system SARS-CoV-2 (USA_WA1/2020), measured log10 EC50 is 0.26
